assay.summary: Drug metabolism assessed as […] incubated for 1 min in presence of human recombinant N-terminal His-tagged DCK Ile24Val mutant expressed in Escherichia coli BL21(DE3) cells by liquid chromatography-tandem mass spectrometry
Assay type: ADME
measured.metric: Km (µM)
Give bare numbers, in µM.

Request the reported Km associated with Nc1ccn([C@@H]2O[C@H](CO)[C@@H](O)C2(F)F)c(=O)n1 [GEMCITABINE]
1.52

---

assay.summary: Drug metabolism assessed as […] incubated for 1 min in presence of human recombinant N-terminal His-tagged DCK Pro122Ser mutant expressed in Escherichia coli BL21(DE3) cells by liquid chromatography-tandem mass spectrometry
Type: ADME
measured.metric: Km (nM)
One number for each entry, in nM.

# lookup: Km of Nc1ccn([C@@H]2O[C@H](CO)[C@@H](O)C2(F)F)c(=O)n1 [GEMCITABINE]
1430
